- Protocol: pharmacokinetics and bioavailability in mouse plasma
- Type: in vivo, Crl:CD-1 mice
- Experimental conditions: male, Crl:CD-1, mouse, plasma, inhaled or intranasal, 10 mg/kg, mouse plasma; 10 mg/kg IN
Reported endpoint: AUC(0-t)

The molecule listed as Cc1cc(Cn2ncc3c(-c4cccc(C#N)c4F)nc(N)nc32)ccc1N [11o] shows AUC(0-t) equal to 444 ng·h/mL

====

- Protocol: pharmacokinetics and bioavailability in mouse plasma
- Type: in vivo, Crl:CD-1 mice
- Experimental conditions: male, Crl:CD-1; mouse plasma; 1 mg/kg IV
Reported endpoint: Tmax
Respond with the figure and its unit, in that order.

The molecule listed as Cc1cc(Cn2ncc3c(-c4cccc(C#N)c4F)nc(N)nc32)ccc1N [11o] shows Tmax equal to 4.98 min

====

- Assayed system: UniProt P30542
Reported endpoint: log10 Ki (log10 of the value in nM)
Short version: log10 scale, Ki, nM.

These solved cases illustrate the format of a correct answer.
N#Cc1cc(-c2nc(N)nc3c2cnn3Cc2ccc(N)cc2F)ccn1 [11h] = 4.45
N#Cc1cccc(-c2nc(N)nc3c2cnn3Cc2ccc(N)cc2)n1 [11b] = 2.81
N#Cc1ccnc(-c2nc(N)nc3c2cnn3Cc2c(F)cc(N)cc2F)c1 [11p] = 2.58

Please state, for each entry, its recorded log10 Ki.
1. N#Cc1cccc(-c2nc(N)nc3c2cnn3Cc2ccc(N)cc2F)c1 [11i]
2. N#Cc1cccc(-c2nc(N)nc3c2cnn3Cc2ccc(N)c(C(F)(F)F)c2)c1 [11w]

2.20
1.69

====

- Protocol: pharmacokinetics and bioavailability in mouse plasma
- Assay type: in vivo, Crl:CD-1 mice
- Experimental conditions: male, Crl:CD-1; mouse plasma; 1 mg/kg IV
Reported endpoint: half-life (h)
Answers are plain numbers, in h.

The compound listed as Cc1cc(Cn2ncc3c(-c4cccc(C#N)c4F)nc(N)nc32)ccc1N [11o] shows half-life equal to 3.95

====

- Assayed system: hA2A receptors (Homo sapiens, UniProt P29274)
- Sequence (P29274 whole entry): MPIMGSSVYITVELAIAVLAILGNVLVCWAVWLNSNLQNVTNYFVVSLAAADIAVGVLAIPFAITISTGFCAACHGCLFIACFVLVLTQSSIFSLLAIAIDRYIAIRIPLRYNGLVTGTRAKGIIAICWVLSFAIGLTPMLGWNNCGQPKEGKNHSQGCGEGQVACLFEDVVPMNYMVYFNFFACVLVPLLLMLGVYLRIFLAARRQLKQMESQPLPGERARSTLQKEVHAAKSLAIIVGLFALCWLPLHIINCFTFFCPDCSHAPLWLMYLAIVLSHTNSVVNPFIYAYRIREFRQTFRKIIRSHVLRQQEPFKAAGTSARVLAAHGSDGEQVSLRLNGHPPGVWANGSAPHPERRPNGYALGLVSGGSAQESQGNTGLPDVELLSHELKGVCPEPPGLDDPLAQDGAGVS
Reported endpoint: pIC50
Answers are plain numbers, as −log10 of the molar value.

The compound listed as Cc1cc(Cn2ncc3c(-c4cccc(C#N)c4F)nc(N)nc32)ccc1N [11o] shows pIC50 equal to 7.62

====

- Protocol: metabolic stability in cryopreserved monkey hepatocytes
- Experimental conditions: cynomolgus monkey, cryopreserved hepatocytes in suspension
Reported endpoint: CLint scaled at 1 μM (mL/min/kg)
Answers are plain numbers, in mL/min/kg.

The compound listed as Cc1cc(Cn2ncc3c(-c4cccc(C#N)c4F)nc(N)nc32)ccc1N [11o] shows CLint scaled at 1 μM equal to 20.1

====

- Protocol: pharmacokinetics and brain/plasma ratio in mouse brain
- Format: in vivo, Crl:CD-1 mice
- Experimental conditions: male, Crl:CD-1, inhaled or intranasal; mouse brain; 10 mg/kg IN
Reported endpoint: Tmax

The compound listed as Cc1cc(Cn2ncc3c(-c4cccc(C#N)c4F)nc(N)nc32)ccc1N [11o] shows Tmax equal to 30 min

====

- Protocol: pharmacokinetics and brain/plasma ratio in mouse brain
- Type: in vivo, Crl:CD-1 mice
- Experimental conditions: male, Crl:CD-1, inhaled or intranasal; mouse brain; 10 mg/kg IN
Reported endpoint: AUC(0-t)
Respond with the figure and its unit, in that order.

The compound listed as Cc1cc(Cn2ncc3c(-c4cccc(C#N)c4F)nc(N)nc32)ccc1N [11o] shows AUC(0-t) equal to 0.0813 µg·h/mL

====

- Protocol: pharmacokinetics and brain/plasma ratio in mouse brain
- Type: in vivo, Crl:CD-1 mice
- Experimental conditions: male, Crl:CD-1; mouse brain; 1 mg/kg IV
Reported endpoint: Cmax (µg/mL)
Numbers only, in µg/mL.

The compound listed as Cc1cc(Cn2ncc3c(-c4cccc(C#N)c4F)nc(N)nc32)ccc1N [11o] shows Cmax equal to 0.41

====

Target chain: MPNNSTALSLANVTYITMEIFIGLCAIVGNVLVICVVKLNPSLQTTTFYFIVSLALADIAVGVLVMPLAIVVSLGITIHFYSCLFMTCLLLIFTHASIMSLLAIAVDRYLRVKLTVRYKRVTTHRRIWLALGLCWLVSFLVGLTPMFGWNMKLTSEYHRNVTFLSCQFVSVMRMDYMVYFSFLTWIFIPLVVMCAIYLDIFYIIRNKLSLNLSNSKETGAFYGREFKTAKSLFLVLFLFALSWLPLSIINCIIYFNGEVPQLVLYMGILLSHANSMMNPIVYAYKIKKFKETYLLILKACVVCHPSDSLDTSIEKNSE
Reported endpoint: pKi
One number for each entry, as −log10 of the molar value.

The compound listed as Cc1cc(Cn2ncc3c(-c4cccc(C#N)c4F)nc(N)nc32)ccc1N [11o] shows pKi equal to 5.98

====

- Protocol: pharmacokinetics and bioavailability in mouse plasma
- Assay type: in vivo, Crl:CD-1 mice
- Experimental conditions: male, Crl:CD-1, inhaled or intranasal; mouse plasma; 1 mg/kg IN
Reported endpoint: Tmax
Respond with the figure and its unit, in that order.

The compound listed as Cc1cc(Cn2ncc3c(-c4cccc(C#N)c4F)nc(N)nc32)ccc1N [11o] shows Tmax equal to 30 min

====

- Assayed system: hA1 receptor (Homo sapiens)
- Sequence (P30542 1-326): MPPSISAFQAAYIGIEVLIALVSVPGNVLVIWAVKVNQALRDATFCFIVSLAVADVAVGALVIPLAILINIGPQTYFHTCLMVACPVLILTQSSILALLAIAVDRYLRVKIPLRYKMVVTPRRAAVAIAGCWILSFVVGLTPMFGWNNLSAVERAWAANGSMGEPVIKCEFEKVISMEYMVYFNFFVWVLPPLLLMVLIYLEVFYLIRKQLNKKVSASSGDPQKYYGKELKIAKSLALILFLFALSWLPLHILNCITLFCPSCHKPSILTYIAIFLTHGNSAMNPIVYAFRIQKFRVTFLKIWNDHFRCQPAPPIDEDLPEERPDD
Reported endpoint: pKi
One number for each entry, as −log10 of the molar value.

These solved cases illustrate the format of a correct answer.
Cc1cc(Cn2ncc3c(-c4ccnc(C#N)c4)nc(N)nc32)ccc1N [11n] = 4.67
Cc1cc(Cn2ncc3c(-c4cncc(C#N)c4)nc(N)nc32)ccc1N [11m] = 4.67
N#Cc1cccc(-c2nc(N)nc3c2cnn3Cc2c(F)cc(N)cc2F)c1F [11u] = 7.52
Cc1cc(Cn2ncc3c(-c4cccc(C#N)c4F)nc(N)nc32)ccc1N [11o] = 7.26
N#Cc1cccc(-c2nc(N)nc3c2cnn3Cc2c(F)cc(N)cc2F)n1 [11q] = 6.82

Please state, for each entry, its recorded pKi.
1. N#Cc1ccnc(-c2nc(N)nc3c2cnn3Cc2ccc(N)cc2F)c1 [11e]
2. N#Cc1cncc(-c2nc(N)nc3c2cnn3Cc2ccc(N)cc2F)c1 [11g]
3. N#Cc1cncc(-c2nc(N)nc3c2cnn3Cc2ccc(N)cc2)c1 [11c]
4. N#Cc1cncc(-c2nc(N)nc3c2cnn3Cc2c(F)cc(N)cc2F)c1 [11r]

6.15
4.48
4.49
5.00

Please state, for each entry, its recorded pKi.
1. N#Cc1cccc(-c2nc(N)nc3c2cnn3Cc2c(F)cc(N)cc2F)c1 [11t]
2. CCn1c(=O)c2c(nc(/C=C/c3ccc(OC)c(OC)c3)n2C)n(CC)c1=O [Istradefylline, reference compound]
3. Cc1cc(Cn2ncc3c(-c4cccc(C#N)n4)nc(N)nc32)ccc1N [11l]
4. N#Cc1ccnc(-c2nc(N)nc3c2cnn3Cc2ccc(N)cc2)c1 [11a]
5. Cc1cc(Cn2ncc3c(-c4cc(C#N)ccn4)nc(N)nc32)ccc1N [11k]

7.30
6.21
6.74
5.61
6.29

====

- Protocol: pharmacokinetics and brain/plasma ratio in mouse brain
- Format: in vivo, Crl:CD-1 mice
- Experimental conditions: male, Crl:CD-1, mouse, other: IN dosing, solution placed near the nares to inhale; 1 mg/kg IN; Brain AUClast/Plasma AUClast; read-out: B/P Ratio
Reported endpoint: Kp
Answers are plain numbers.

The compound listed as Cc1cc(Cn2ncc3c(-c4cccc(C#N)c4F)nc(N)nc32)ccc1N [11o] shows Kp equal to 0.0698

====

- Protocol: metabolic stability in cryopreserved rat hepatocytes
- Experimental conditions: Sprague Dawley, rat, cryopreserved hepatocytes in suspension
Reported endpoint: hepatocyte CLint at 1 μM (µL/min/1e6 cells)
Answers are plain numbers, in µL/min/1e6 cells.

The compound listed as Cc1cc(Cn2ncc3c(-c4cccc(C#N)c4F)nc(N)nc32)ccc1N [11o] shows hepatocyte CLint at 1 μM equal to 14.8

====

- Protocol: pharmacokinetics and brain/plasma ratio in mouse brain
- Assay type: in vivo, Crl:CD-1 mice
- Experimental conditions: male, Crl:CD-1; mouse brain; 1 mg/kg PO
- Procedure: Male Crl:CD-1 mice of 9~10 weeks of age were purchased from Charles River Laboratories, USA and maintained at standard food and water ad libitum in temperature-controlled room with 12 h on-off light cycle before the experiment. […] Resulting plasma were stored in a freezer set to maintain −70 °C until analyzed for 11o concentration. […] Dose proportionality was assessed, and bioavailability was calculated for PO dosing.
Reported endpoint: AUC(0-t) (ng·h/mL)
Give bare numbers, in ng·h/mL.

The compound listed as Cc1cc(Cn2ncc3c(-c4cccc(C#N)c4F)nc(N)nc32)ccc1N [11o] shows AUC(0-t) equal to 4.26
